These data points were gathered from ChEMBL document CHEMBL1201862.

Listing of entries alongside the reported GI50.
Test system: OVCAR-4
Method summary: NCI tumour cell line growth inhibition, 48 h
Activity calls are given as the source filed them. Rule as the data show it: active = GI50 up to about 1.1 µM and inactive = higher.

O=[As](O)(O)c1cc(/N=N/c2ccc(-c3ccc(/N=N/c4cc([As](=O)(O)O)c(O)cc4O)cc3)cc2)c(O)cc1O; > 42.9 µM (inactive)

### Prompt Report GI50 from OVCAR-4 testing of CSC(=N)NNC(=O)CCC(=O)Nc1ccccc1C(F)(F)F
### Response > 100 µM (inactive)

### Prompt Report GI50 from OVCAR-4 testing of C[C@H]1CC[C@@H]2[C@@H](C)[C@H]3[C@H](C[C@H]4[C@@H]5CC=C6C[C@@H](O)CC[C@]6(C)[C@H]5C[C@H](O)[C@]34C)N2C1
### Response > 100 µM (inactive)

### Prompt Report GI50 from OVCAR-4 testing of O=C1c2ccccc2C(=O)c2sc(Nc3cc(Cl)ccc3Cl)nc21
### Response 4.16 µM (inactive)

### Prompt Report GI50 from OVCAR-4 testing of CC(=O)NC(CC(C)C)C(=O)NC(Cc1ccccc1)C(=S)N1CCCC1 (stereo not drawn)
### Response > 100 µM (inactive)

### Prompt Report GI50 from OVCAR-4 testing of Cc1cc(NC2=CC(=O)C(=O)c3ccccc32)no1
### Response 8.22 µM (inactive)

### Prompt Report GI50 from OVCAR-4 testing of C[C@H](CC[C@@H](O)C(C)(C)O)[C@H]1CC[C@@]2(C)[C@@H]3CC=C4[C@@H](CC[C@H](O)C4(C)C)[C@]3(C)C(=O)C[C@]12C
### Response > 50 µM (inactive)

### Prompt Report GI50 from OVCAR-4 testing of Cc1nc2c(O)cc3c4c(n(Cc5ccccc5)c3c2nc1C)C(=O)CCC4
### Response 13.9 µM (inactive)
